Kindly supply the reported kon values for the records listed here.
# system.tested: T1, recombinant hIL-6R protein, monomeric form (human, UniProt P08887 20-358)
# T1 construct: also called monomeric hIL-6R; Human IL6R
# T1 sequence: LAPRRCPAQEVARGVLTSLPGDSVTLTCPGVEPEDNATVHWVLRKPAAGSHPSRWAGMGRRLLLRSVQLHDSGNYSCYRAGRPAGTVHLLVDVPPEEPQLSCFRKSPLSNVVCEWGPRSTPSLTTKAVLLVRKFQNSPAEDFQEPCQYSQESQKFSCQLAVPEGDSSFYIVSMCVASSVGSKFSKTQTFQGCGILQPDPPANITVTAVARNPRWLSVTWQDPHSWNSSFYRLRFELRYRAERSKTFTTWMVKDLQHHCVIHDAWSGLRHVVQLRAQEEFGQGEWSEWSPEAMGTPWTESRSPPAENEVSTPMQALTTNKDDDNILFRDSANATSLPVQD
# assay.details: SPR (BIAcore), antibody captured on goat anti-human Fc, monomeric hIL-6R 1.56-12.5 nM
Give the number; M⁻¹ s⁻¹ is assumed, so skip it.

What measured kon goes with VQ8F11-21 hIgG1 (antibody, V domains shown) VH: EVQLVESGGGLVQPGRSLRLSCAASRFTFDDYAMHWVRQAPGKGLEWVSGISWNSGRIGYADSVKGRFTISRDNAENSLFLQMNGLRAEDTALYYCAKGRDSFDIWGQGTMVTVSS VL: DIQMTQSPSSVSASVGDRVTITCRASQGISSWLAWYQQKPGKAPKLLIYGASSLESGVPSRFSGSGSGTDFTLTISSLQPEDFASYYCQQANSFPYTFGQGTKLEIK ?
622000

Also VQ8F11-21 hIgG4 (antibody, V domains shown, Human IgG4 (wild-type) constant region) VH: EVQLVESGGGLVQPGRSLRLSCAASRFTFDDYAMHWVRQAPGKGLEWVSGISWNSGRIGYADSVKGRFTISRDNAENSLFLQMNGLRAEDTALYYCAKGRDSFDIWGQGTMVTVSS VL: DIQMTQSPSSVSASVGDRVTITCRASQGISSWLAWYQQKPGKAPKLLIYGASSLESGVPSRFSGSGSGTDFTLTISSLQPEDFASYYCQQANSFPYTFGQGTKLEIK , if possible.
717000

Note, next up: VQ1G4-21 hIgG1 (antibody, V domains shown, Human IgG1 constant region) VH: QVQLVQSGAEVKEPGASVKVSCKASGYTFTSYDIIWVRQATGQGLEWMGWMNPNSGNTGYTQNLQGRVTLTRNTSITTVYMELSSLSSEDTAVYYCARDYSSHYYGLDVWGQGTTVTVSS VL: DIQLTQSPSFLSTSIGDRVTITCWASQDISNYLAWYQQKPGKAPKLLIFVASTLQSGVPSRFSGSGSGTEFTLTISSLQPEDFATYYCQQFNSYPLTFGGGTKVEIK
334000

Entry to check: VV6A9-5 hIgG1 (antibody, V domains shown, Human IgG1 constant region) VH: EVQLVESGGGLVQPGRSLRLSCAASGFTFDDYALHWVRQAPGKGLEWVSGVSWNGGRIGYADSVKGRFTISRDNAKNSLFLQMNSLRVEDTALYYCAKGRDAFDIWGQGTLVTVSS VL: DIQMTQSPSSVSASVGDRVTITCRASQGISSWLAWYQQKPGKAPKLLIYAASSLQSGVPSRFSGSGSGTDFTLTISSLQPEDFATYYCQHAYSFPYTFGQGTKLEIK
712000

Consider next the binder VQ1G4-21 hIgG4 (antibody, V domains shown, Human IgG4 constant region) VH: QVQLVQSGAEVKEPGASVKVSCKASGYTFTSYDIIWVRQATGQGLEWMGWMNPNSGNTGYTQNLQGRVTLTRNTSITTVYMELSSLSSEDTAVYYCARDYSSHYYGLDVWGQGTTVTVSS VL: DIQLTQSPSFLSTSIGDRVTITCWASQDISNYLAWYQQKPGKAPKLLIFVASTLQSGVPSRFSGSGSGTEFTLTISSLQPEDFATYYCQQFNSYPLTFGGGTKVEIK in the same way.
273000
